# study-target: human Lck kinase (UniProt P06239)
pKi: −log10 of the molar value.
pKi: recorded values
test-readout: pKi

In [3]: df
Out[3]:
                         chemical_structure  value_observed
0  CSc1sc(-c2ccnc(Nc3cccc(OCCCN4CCC(O)CC4)c3)n2)c(C2CCCCC2)c1C#N          > 7.00
1  CSc1sc(-c2nc(Nc3cccc(OCCN4CCC(CO)CC4)c3)ncc2C)c(-c2cccnc2)c1C#N          > 7.00
2  COCCNCCCOc1cccc(Nc2nccc(-c3sc(SC)c(C#N)c3C3CCCCC3)n2)c1          > 7.00
3  CSc1sc(-c2ccnc(Nc3cccc(OCCCN4CCOCC4)c3)n2)c(C2CCCCC2)c1C#N          > 7.00
4  CSc1sc(-c2ccnc(Nc3cccc(OCCCN4CCSC4)c3)n2)c(C2CCCCC2)c1C#N          > 7.00
5  CSc1sc(-c2ccnc(Nc3cccc(NC(=O)Cc4csc(N)n4)c3)n2)c(-c2cccnc2)c1C#N          > 7.00
